# Tgt: Mitogen-activated protein kinase 14 (Homo sapiens)
# Sequence (Q16539 whole entry): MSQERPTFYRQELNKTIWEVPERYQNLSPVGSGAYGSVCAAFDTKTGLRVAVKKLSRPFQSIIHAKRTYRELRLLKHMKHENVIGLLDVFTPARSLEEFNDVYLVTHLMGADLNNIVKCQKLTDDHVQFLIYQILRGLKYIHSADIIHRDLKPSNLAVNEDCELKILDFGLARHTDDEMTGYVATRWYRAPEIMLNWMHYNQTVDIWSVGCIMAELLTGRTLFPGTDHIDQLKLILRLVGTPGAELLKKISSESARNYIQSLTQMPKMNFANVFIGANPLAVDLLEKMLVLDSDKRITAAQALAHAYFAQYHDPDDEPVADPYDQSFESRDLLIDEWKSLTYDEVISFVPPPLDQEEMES
# Protocol notes: Inhibition of P38alpha (unknown origin)
Property: IC50

Return reported IC50; argument: O=C(Nc1cnn(-c2csc(C(=O)NC3CNC3)c2)c1)Nc1ccccc1Cl
> 20 µM
